Attribution: PubChem BioAssay

Collected AC50 values appear next to each entry.
Assay: viability loss in pontine glioma line – cell-based, SU-DIPG-XIII, MIPE4.0, CellTiter-Glo, qHTS, dose response (AID 1347061);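 note: cells exposed to compound for 48 hours before readout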
Conditions: CellTiter-Glo ATP luminescence
Inconclusive results are not listed. Calls of active or inactive are those of the source. No cut-off is given here; in the data, nearly all actives have AC50 up to about 37 µM.
EXPERIMENTAL ENDPOINT: AC50

INSERT INTO results (chemical_smiles, experimental_endpoint, readout_value) VALUES
  ('COC(=O)Nc1ccc(-c2nc(N3CCOCC3)c3cnn(C4CCN(C(=O)OC)CC4)c3n2)cc1', 'AC50', '0.0662 µM (active)'),
  ('CC(=O)Nc1ccc([C@H](C)C(=O)Nc2ncc(C(C)C)s2)cc1', 'AC50', '4.69 µM (active)'),
  ('CN(C)c1ccc2cc(C(=O)N[C@@H](CCCN=C(N)CCl)C(=O)NCc3ccccc3)ccc2c1', 'AC50', '16.6 µM (active)');
